# System: C8166
# test name: Compound concentration required to reduce the amount of p24 by 90% in C8166 cells infected with an efavirenz-resistant strain EFVR carrying mutations K103R, V179D, and P225H
# Format: functional
# condition context: Homo sapiens
Overview of reported EC90 across a group of compounds:

# compound, EC90
measured = [
    ("Cc1cc(C)cc(S(=O)(=O)c2c(C(=O)NNCCO)[nH]c3ccc(Cl)cc23)c1", "200 nM"),
    ("O=C1Nc2ccc(Cl)cc2[C@@](C#CC2CC2)(C(F)(F)F)O1 [EFAVIRENZ]", "1800 nM"),
    ("Cc1ccnc2c1NC(=O)c1cccnc1N2C1CC1 [NEVIRAPINE]", "> 30000 nM"),
    ("Cc1cc(C)cc(S(=O)(=O)c2c(C(=O)NCCO)[nH]c3ccc(Cl)cc23)c1", "100 nM"),
]

---

Overview of reported EC50 across a group of compounds:
# Test system: MT4
# test name: Compound concentration required to achieve 50% protection of infected MT-4 cells from Y181C strain was determined by the MTT method
# Format: functional, cell-based
# condition context: Homo sapiens
result type: EC50 (nM)

# compound, result type, result unit, qualifier operator, result
records = [
    ("Cc1ccnc2c1NC(=O)c1cccnc1N2C1CC1 [NEVIRAPINE]", "EC50", "nM", ">", 30000),
    ("Cc1cc(C)cc(S(=O)(=O)c2c(C(=O)NNCCO)[nH]c3ccc(Cl)cc23)c1", "EC50", "nM", "=", 30),
    ("Cc1cc(C)cc(S(=O)(=O)c2c(C(=O)NCCO)[nH]c3ccc(Cl)cc23)c1", "EC50", "nM", "=", 10),
]

---

Overview of reported EC90 across a group of compounds:
# Tested on: C8166
# test name: Concentration required to reduce the amount of p24 by 90% in wtIIIB-HIV-1-infected C8166 cells
# Format: functional
# condition context: Homo sapiens

# compound, EC90, nM
data = [
    ("Cc1cc(C)cc(S(=O)(=O)c2c(C(=O)NNCCO)[nH]c3ccc(Cl)cc23)c1", 6),
    ("NC(=O)c1[nH]c2ccc(Cl)cc2c1S(=O)(=O)c1ccccc1 [L-737126]", 0.7),
    ("Cc1cc(C)cc(S(=O)(=O)c2c(C(=O)NCCO)[nH]c3ccc(Cl)cc23)c1", 5),
    ("Cc1ccnc2c1NC(=O)c1cccnc1N2C1CC1 [NEVIRAPINE]", 120),
    ("O=C1Nc2ccc(Cl)cc2[C@@](C#CC2CC2)(C(F)(F)F)O1 [EFAVIRENZ]", 8),
]

---

# System: MT4
# test name: Concentration required for 50% protection of infected MT-4 cells from wtIIIB-HIV-1-induced cytopathogenicity was determined by the MTT method
# Type: functional, cell-based
# condition context: Homo sapiens
Overview of reported EC50 across a group of compounds:

# chemical string, test target, result unit, EC50
data = [
    ("Nc1cc(Cl)ccc1S(=O)(=O)n1ccc2ccccc21", "MT4", "nM", 74100),
    ("O=[N+]([O-])c1ccc(Cl)cc1S(=O)(=O)n1ccc2ccccc21", "MT4", "nM", 3980),
    ("Cc1ccc(Sc2c(C(=O)NNCCO)[nH]c3ccc(Cl)cc23)c(C)c1", "MT4", "nM", 2290),
    ("Cc1cc(C)cc(S(=O)(=O)c2c(C(=O)NCCO)[nH]c3ccc(Cl)cc23)c1", "MT4", "nM", 1),
    ("Cc1cccc(S(=O)(=O)c2c(C(=O)NNCCO)[nH]c3ccc(Cl)cc23)c1", "MT4", "nM", 10),
    ("Cc1ccc(S(=O)(=O)c2c(C(=O)NCCO)[nH]c3ccc(Cl)cc23)c(C)c1", "MT4", "nM", 10),
    ("Cc1cc(C)cc(S(=O)(=O)c2c(C(=O)NNCCO)[nH]c3ccc(Cl)cc23)c1", "MT4", "nM", 1),
    ("O=[N+]([O-])c1ccc(Cl)c(S(=O)(=O)n2ccc3ccccc32)c1", "MT4", "nM", 6030),
    ("O=[N+]([O-])c1cc(Cl)ccc1S(=O)(=O)n1ccc2ccccc21", "MT4", "nM", 15800),
    ("O=C(NCCO)c1[nH]c2ccc(Cl)cc2c1Sc1ccccc1", "MT4", "nM", 129),
]
